Values from patent US10717746B2

Biological target: CDK9/CycT1 (Homo sapiens (Human))
Sequence (P50750 whole entry): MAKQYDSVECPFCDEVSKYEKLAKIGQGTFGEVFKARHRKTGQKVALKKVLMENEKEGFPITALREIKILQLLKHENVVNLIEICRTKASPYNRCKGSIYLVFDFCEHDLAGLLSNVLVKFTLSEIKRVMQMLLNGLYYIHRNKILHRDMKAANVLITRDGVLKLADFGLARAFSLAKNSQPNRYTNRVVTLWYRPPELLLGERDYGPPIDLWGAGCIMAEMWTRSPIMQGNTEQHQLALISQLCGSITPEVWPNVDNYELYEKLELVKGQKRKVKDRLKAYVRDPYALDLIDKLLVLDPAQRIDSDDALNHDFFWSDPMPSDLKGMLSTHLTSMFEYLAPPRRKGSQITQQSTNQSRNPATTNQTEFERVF
Sequence (O60563 whole entry partner): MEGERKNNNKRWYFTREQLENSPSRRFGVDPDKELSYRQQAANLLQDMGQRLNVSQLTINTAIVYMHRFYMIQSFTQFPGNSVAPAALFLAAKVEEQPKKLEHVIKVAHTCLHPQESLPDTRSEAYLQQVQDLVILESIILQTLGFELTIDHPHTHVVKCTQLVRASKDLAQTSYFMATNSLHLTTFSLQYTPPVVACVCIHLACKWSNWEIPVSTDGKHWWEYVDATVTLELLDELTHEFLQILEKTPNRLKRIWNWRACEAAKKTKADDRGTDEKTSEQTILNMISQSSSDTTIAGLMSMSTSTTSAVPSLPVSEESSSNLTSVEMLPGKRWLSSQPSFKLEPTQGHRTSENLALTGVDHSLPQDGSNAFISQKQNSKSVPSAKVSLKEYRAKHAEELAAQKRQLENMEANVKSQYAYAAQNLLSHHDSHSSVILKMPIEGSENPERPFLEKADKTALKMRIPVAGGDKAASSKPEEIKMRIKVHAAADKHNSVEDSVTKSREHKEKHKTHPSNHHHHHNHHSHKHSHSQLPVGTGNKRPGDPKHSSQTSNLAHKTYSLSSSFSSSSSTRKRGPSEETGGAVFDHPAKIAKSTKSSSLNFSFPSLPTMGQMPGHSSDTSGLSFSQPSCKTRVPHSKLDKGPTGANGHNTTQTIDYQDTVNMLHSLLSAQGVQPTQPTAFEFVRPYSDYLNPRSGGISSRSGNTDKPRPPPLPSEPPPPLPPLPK
Experiment: CDK9 kinase assay, ATP concentration at Km (mobility shift, Caliper LC3000)
Assay type: biochemical
Details: 6 μM ATP, 3 nM CDK9/CycT1; read-out: CDK9 ATP conc. at Km (IC50)
quantity: IC50 (nM)
Write the value in nM as a bare number.

CC(=O)N[C@@H]1CCC[C@H](C(=O)Nc2cc(-c3cnn4c3CN(C)CC4)c(Cl)cn2)C1 [Example 13] ... 6
CC(=O)N[C@H]1CCC[C@@H](C(=O)Nc2cc(-c3cnn4c3CC(C)(C)C4)c(F)cn2)C1 [Example 81] ... 8
CC(=O)N[C@@H]1CCC[C@H](C(=O)Nc2cc(-c3cnc4n3CCC4)c(Cl)cn2)C1 [Example 12] ... 5

Reported IC50 of CC(=O)N[C@@H]1CCC[C@H](C(=O)Nc2cc(-c3cnn4c3CCCC4)c(C)cn2)C1 [Example 77] : 4

Reported IC50 of CC(=O)N[C@@H]1CCC[C@H](C(=O)Nc2cc(-c3cnn4c3CCC4)c(Cl)cn2)C1 [Example 10] : 5

Reported IC50 of O=C(Nc1cc(-c2cnn3c2CCCC3)c(Cl)cn1)[C@H]1C[C@@H](O)C1 [Example 4] : 3
